- studySystem: rat frizzled-1 receptor (rat, UniProt Q08463 69-641)
- Sequence (Q08463 69-641): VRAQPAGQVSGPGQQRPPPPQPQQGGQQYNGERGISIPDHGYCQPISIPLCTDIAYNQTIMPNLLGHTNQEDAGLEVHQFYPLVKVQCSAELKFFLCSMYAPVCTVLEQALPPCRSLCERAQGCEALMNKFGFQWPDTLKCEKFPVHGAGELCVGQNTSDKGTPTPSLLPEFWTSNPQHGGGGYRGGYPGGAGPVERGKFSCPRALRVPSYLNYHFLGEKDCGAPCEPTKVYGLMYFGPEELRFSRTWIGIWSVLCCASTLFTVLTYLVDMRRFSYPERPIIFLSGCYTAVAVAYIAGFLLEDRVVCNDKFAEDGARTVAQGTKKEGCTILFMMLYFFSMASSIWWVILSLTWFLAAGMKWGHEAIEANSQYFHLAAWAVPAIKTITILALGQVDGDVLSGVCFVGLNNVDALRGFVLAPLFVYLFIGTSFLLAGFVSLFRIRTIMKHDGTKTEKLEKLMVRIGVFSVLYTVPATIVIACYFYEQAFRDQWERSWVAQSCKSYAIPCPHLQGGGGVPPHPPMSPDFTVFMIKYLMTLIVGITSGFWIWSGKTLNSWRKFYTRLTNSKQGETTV
- test: cell-based or functional assay
Where no end group is shown, it is not given here. alkyl = not defined here
Please go through the items and note down their % of inhibition of Wnt3a-induced luciferase activity, peptide 1.10^-9 M.

// % of inhibition of Wnt3a-induced luciferase activity, peptide 1.10^-9 M lookup, key: Ac-CNKTSEGMDGCEL-NH2 (cysteine pairing not given here, Linear form, no disulfide bridge between the two cysteines; also called antagonist UM206) [Peptide UM206]
72.2%

If you can, please state the reported % of inhibition of Wnt3a-induced luciferase activity, peptide 1.10^-9 M value of C(alkyl)NKTSEGMDGC(alkyl)EL-NH2 (not fully specified (N-terminus); reading uncertain; also: alkyl group not given here) [UM206 (C = C-alkyl)] .
1%

Given the binder ANKTSEGMDGAEL [UM206 (C = A)] , what is its reported % of inhibition of Wnt3a-induced luciferase activity, peptide 1.10^-9 M?
0%

Any idea what % of inhibition of Wnt3a-induced luciferase activity, peptide 1.10^-9 M was measured for ANKTSEGMDGCEL [UM206 (1 C = A)] ?
70.8%

Looking for the measured % of inhibition of Wnt3a-induced luciferase activity, peptide 1.10^-9 M of CNKTSEGMDGC-NH2 (cysteine pairing not given here) [UM206 - (deletion of the C-terminal Glutamic acid and Leucine)] , can you help?
18%

Which % of inhibition of Wnt3a-induced luciferase activity, peptide 1.10^-9 M value belongs to CNKTSEGMAGCEL-NH2 (cysteine pairing not given here) [UM206 (9 D = A)] ?
40.5%

Provenance of the data: patent US20120014876A1
